Entry source: the RNAGym collection of RNA variant scans (doi:10.7554/elife.80360)

B1: Twister Ribozyme (parent)
chain: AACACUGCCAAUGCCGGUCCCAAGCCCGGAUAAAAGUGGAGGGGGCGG

# Variants of: B1
# protocolNotes: self-cleavage, relative activity (ratio to wild type); higher = more cleavage; co-transcriptional
variants and their reported self-cleavage
metricName: self-cleavage

1) G7U A11C : 0.0886
2) A2U U18C : 0.147
3) U6C C19U : 0.131
